The compounds listed here are annotated with their melting point.

Study these solved cases before continuing.
>>> val("O=C1C(Br)CCN1c1cc(C(F)(F)F)ccn1 (stereo unspecified)")
"43 to 47 °C"
>>> val("COc1ccccc1OCC(O)CCCl (stereo unspecified)")
"48 to 50 °C"
>>> val("Brc1ccc(N=C(c2ccccc2)c2ccccc2)cc1")
"82 to 83 °C"

Qu. Give its melting point value. Item: Cn1nc(C(F)(F)F)cc1Oc1cc(C#N)cc(-c2cc(C(F)(F)F)nn2C)n1
Ans. 164 to 165 °C

Qu. Give its melting point value. Item: COCCNC(=O)c1n[nH]cc1NC(=O)c1ccccn1
Ans. 166 to 167 °C

Qu. Give its melting point value. Item: CCC(=O)c1c(O)cccc1O
Ans. 135 to 136 °C

* * *

result_type: melting point

Study these solved cases before continuing.
>>> val("CC(=O)OC1CSC(Br)C(OC(C)=O)C1OC(C)=O (stereo not given)")
"175 °C"
>>> val("CS(=O)(=O)N1CCN([C@](O)(CNC(=O)c2ccc(OCC#CCO)cc2)C(N)=O)CC1")
"162 °C"
>>> val("CCOC(=O)C(C)(C(=O)OCC)c1cccc(C(=O)c2ccccc2)c1[N+](=O)[O-]")
"102 to 104 °C"
>>> val("CCOC(=O)C1(C(=O)OCC)C(C(C)=O)C(=O)N1Cc1ccc(OC)cc1OC (stereo not given)")
"84 to 85 °C"
>>> val("COc1cccc(-c2nc(=O)c3ccccc3s2)n1")
"226 °C"
>>> val("Cc1c(NCCNCC(O)COc2ccccc2)c(=O)n(C)c(=O)n1C (stereo not given)")
"92 to 94 °C"
>>> val("Cc1cc(OC(=S)N(C)C)nc(C(Cl)(Cl)Cl)n1")
"81 to 83 °C"
>>> val("CCOC(=O)Oc1ccc(OC)c(N)c1")
"150 to 151 °C"
>>> val("Cc1nc(-c2cccc(C(F)(F)F)c2)c2nc(-c3ccccc3)cc-2[nH]1")
"206 to 208 °C"

Next up:
Qu. Give its melting point value. Item: Cc1cc(C)c(-c2ccnc(Nc3ccc(F)cc3)n2)[nH]1
Ans. 168 to 172 °C

* * *

result_type: melting point

Study these solved cases before continuing.
>>> val("CCOC(=O)c1cn(-c2cccc(Oc3ccc([N+](=O)[O-])cc3)c2)cn1")
"162 to 163 °C"
>>> val("CCOC(=O)[C@H](Cc1ccc(Nc2nccc3ccncc23)cc1)NC1=C(Br)C(=O)C12CCCCC2")
"192 to 195 °C"
>>> val("Oc1ccc2c(c1)[C@H](O)[C@H](Oc1cccnc1)CO2 (relative stereo)")
"194 to 197 °C"

Qu. Give its melting point value. Item: C[C@@H]1NC(=O)OC1(c1ccccc1)c1ccccc1
Ans. 264 to 266 °C

Qu. Give its melting point value. Item: COc1ccc(/C=C/CO)cc1OCc1nc(-c2ccccc2)oc1C
Ans. 137 to 138 °C

Qu. Give its melting point value. Item: COC(Cc1ccc2oc(Cc3nc(-c4ccccc4)oc3C)cc2c1)C(=O)O (stereo not given)
Ans. 159 to 160 °C

Qu. Give its melting point value. Item: Nc1ccc(Cc2ccccn2)cc1[N+](=O)[O-]
Ans. 128 to 132 °C

Qu. Give its melting point value. Item: COc1ccc(OC)c(NC(=O)c2cccc3cc(O)ccc23)c1
Ans. 165 to 166 °C

Qu. Give its melting point value. Item: Nc1ccc(NCCc2ccccc2)c(S(=O)(=O)CCO)c1
Ans. 197 °C

Qu. Give its melting point value. Item: CC(C)(C)NCC(O)c1ccc(N)c(F)c1F (stereo not given)
Ans. 133 to 135 °C
